Biological target: PI3Kγ enzyme (Homo sapiens, UniProt P48736)
Sequence (P48736 whole entry): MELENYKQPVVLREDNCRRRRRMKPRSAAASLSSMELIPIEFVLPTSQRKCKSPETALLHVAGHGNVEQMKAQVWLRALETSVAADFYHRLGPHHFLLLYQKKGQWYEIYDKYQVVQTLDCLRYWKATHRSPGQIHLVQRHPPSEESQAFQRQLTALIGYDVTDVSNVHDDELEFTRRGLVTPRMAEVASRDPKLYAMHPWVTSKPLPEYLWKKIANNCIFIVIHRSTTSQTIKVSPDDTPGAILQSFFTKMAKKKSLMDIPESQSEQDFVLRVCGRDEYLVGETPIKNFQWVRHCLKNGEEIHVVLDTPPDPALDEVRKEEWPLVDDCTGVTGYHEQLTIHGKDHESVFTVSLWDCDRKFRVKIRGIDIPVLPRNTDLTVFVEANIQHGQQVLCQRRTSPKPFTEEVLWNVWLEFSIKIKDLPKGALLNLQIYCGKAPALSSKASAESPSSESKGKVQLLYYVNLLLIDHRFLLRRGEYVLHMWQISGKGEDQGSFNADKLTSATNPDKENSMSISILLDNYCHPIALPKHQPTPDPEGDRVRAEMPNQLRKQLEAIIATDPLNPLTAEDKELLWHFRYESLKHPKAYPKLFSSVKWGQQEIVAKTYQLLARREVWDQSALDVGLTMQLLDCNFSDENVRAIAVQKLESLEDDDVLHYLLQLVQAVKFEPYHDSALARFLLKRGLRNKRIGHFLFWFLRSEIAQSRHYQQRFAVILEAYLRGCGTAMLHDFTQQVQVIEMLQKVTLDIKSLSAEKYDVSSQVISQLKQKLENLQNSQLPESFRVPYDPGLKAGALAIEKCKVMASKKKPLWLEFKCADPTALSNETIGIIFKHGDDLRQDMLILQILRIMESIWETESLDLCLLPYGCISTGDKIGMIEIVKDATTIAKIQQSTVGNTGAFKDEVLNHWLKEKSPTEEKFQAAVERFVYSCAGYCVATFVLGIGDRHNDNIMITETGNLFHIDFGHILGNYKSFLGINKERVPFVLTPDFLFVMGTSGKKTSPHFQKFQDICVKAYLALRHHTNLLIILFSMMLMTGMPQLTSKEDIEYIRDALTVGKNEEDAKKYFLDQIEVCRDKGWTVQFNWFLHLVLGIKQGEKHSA
Experiment: Adapta universal kinase assay, anti-PI3Kγ activity
Type: biochemical
Details: read-out: % of inhibition (mean) against PI3Kγ enzyme
observation.type: inhibition at 100 µM (%)
Respond with the bare value in %.

Some solved entries appear below for comparison.
O=C(CNc1ccc(S(=O)(=O)Nc2ccccn2)cc1)Nc1nc2ccccc2s1	0
NS(=O)(=O)c1ccc(NCC(=O)Nc2nc3ccccc3s2)cc1	13
N=C(N)NS(=O)(=O)c1ccc(NCC(=O)Nc2nc3ccccc3s2)cc1	25

Next compound, inhibition at 100 µM to be filled in.
In: Request the reported inhibition at 100 µM associated with O=C(CN1CCN(c2cccc(O)c2)CC1)Nc1nc2ccccc2s1
Out: 2
